// provenance: the supplement of paper PMC9732359

measurement_notes: protein stability index of a GFP-peptide fusion (yeast GPS) (PSI 1-4); higher = more stable; sorted into four equal gates, so the index is relative within each strain
experimental_context: doa10∆
I would appreciate it if you labelled entries MET when protein stability index is 3 or higher, otherwise NOT MET.

As a guide, the following entries are already answered.
entry_sequence	discrete_label
IAKLSVIPIRRGYWGTN [RPS2]	NOT MET
TSKMNLSEDVNLETLVT [RPT2]	NOT MET
NENDLKTYNCLHEKYLT [SMC1]	NOT MET
RMVRSIMWQLLDGVSYL [SSN3]	NOT MET
AFDVDRAKSCGVDAMSV [RPL1A]	NOT MET
LIKMSRSPPRPPSLKII [PRP28]	NOT MET
EDHVEDHRKRKKSKIQL [LIN1]	MET
IKTFLVDLTSSNFADSA [YDL116W/NUP84]	NOT MET
MRFNIEIIADWIWDMNV [BRR2]	NOT MET
RSTKDMIDAVFEQDSHL [SNF6]	MET

Evaluate DEDDDQPMISPDNSIFG [SWI3] : protein stability index at minimum 3?
MET

Evaluate IVKGNIIDEIKCIPKKG [POP4] : protein stability index at minimum 3?
NOT MET

Evaluate RLQFAQGSVRRLTVSAR [QCR2] : protein stability index at minimum 3?
NOT MET

Evaluate PFFKYIDDANVTRKQED [RPC37] : protein stability index at minimum 3?
NOT MET

Evaluate NAASQQPTPRSASNTAK [GAL11] : protein stability index at minimum 3?
NOT MET

Evaluate QAELLQLAVKIINKVLD [YJL039C/NUP192] : protein stability index at minimum 3?
NOT MET

Evaluate KTYNKLHYCVSCAIHAR [RPS26A] : protein stability index at minimum 3?
NOT MET

Evaluate IEAIDEYNKPNSEKFVF [ISW2] : protein stability index at minimum 3?
NOT MET

Evaluate ENITNKVTEKVLTQLTA [CSI1] : protein stability index at minimum 3?
NOT MET

Evaluate NIPFWKHVGFELLSMGN [SRP72] : protein stability index at minimum 3?
NOT MET

Evaluate EVYTLVDSQGLPYNWDA [ARP7] : protein stability index at minimum 3?
MET

Evaluate TSPVTGATEKRKCAKPF [CSL4] : protein stability index at minimum 3?
NOT MET

Evaluate GILGNKAQAKMDKRAKN [RPL8A] : protein stability index at minimum 3?
MET

Evaluate KVVNGNSADAAYAQVEI [FAS2] : protein stability index at minimum 3?
NOT MET
